Tgt: CCK-2R (Rattus norvegicus, UniProt P30553)
Construct: The CCK-2R expressing rat pancreatic tumor cells AR4-2J; host or cells: AR4-2J rat pancreatic tumor cells
Sequence (P30553 1-452): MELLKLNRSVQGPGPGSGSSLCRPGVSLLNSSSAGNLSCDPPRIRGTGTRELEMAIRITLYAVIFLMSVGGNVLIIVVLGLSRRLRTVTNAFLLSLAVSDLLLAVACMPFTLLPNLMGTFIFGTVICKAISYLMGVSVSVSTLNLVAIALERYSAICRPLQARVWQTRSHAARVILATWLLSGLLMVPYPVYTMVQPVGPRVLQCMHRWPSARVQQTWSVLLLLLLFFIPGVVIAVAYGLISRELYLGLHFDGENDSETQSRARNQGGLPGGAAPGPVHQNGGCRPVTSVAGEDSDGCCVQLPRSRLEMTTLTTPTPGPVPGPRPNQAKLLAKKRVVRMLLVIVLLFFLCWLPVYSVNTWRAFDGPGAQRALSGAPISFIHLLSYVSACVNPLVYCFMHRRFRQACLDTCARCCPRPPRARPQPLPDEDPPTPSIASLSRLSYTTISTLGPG
Assay: Determination of IC50: CCK-2R affinity on AR4-2J cells, competition with [^177Lu]Lu-DOTA-PP-F11N
Type: binding
Recorded Conditions: AR4-2J cells; ^natLu-labeled; read-out: IC50 [nM] (n = 3), ^natLu-labeled
Starred links: 1 amine or outer side, 2 acyl side, 3 side chain; linkers in the order of their positions; H or OH if unused. Non-standard residues stand in square brackets, D forms with d. Residues, ends and D or L forms follow the SMILES beside them. *: point of attachment. DOTA = O=C(O)CN1CCN(CC(=O)O)CCN(CC(=O)*)CCN(CC(=O)O)CC1; d(γGlu) = O=C(O)[C@@H](CCC(=O)[*:2])N[*:1]; 1Nal = N[C@@H](Cc1cccc2ccccc12)C(=O)O; NMeNle = CCCC[C@H](NC)C(=O)O
I'd be grateful if you could share measured IC50 for these entries.
Kindly provide the numeric value in nM only, without the unit symbol.

Short answer for CCCC[C@@H](C(=O)N[C@@H](CC(=O)O)C(=O)N[C@@H](Cc1cccc2ccccc12)C(N)=O)N(C)C(=O)[C@H](Cc1c[nH]c2ccccc12)NC(=O)CNC(=O)CNC(=O)CNC(=O)CC[C@@H](NC(=O)CN1CCN(CC(=O)O)CCN(CC(=O)O)CCN(CC(=O)O)CC1)C(=O)O [DOTA-CCK-62] ({DOTA-d(γGlu)}-GGGW[NMeNle]D[1Nal]-NH2) : IC50 was 8.2

IC50 for "CCCC[C@@H](C(=O)N[C@@H](CC(=O)O)C(=O)N[C@@H](Cc1cccc2ccccc12)C(N)=O)N(C)C(=O)[C@H](Cc1c[nH]c2ccccc12)NC(=O)CCOCCOCCOCCOCCNC(=O)CC[C@@H](NC(=O)CCOCCOCCOCCOCCOCCOCCOCCOCCOCCOCCOCCOCCNC(=O)CC[C@@H](NC(=O)[C@@H](CNC(=O)C[N+](C)(C)Cc1ccc([Si](F)(C(C)(C)C)C(C)(C)C)cc1)NC(=O)CN1CCN(CC(=O)O)CCN(CC(=O)O)CCN(CC(=O)O)CC1)C(=O)O)C(=O)O" is 19.2

Looking up CCCC[C@@H](C(=O)N[C@@H](CC(=O)O)C(=O)N[C@@H](Cc1cccc2ccccc12)C(N)=O)N(C)C(=O)[C@H](Cc1c[nH]c2ccccc12)NC(=O)CNC(=O)CNC(=O)[C@H](C)NC(=O)CNC(=O)CN1CCN(CC(=O)O)CCN(CC(=O)O)CCN(CC(=O)O)CC1 [DOTA-CCK-61] ({DOTA}-GAGGW[NMeNle]D[1Nal]-NH2) , I see its IC50 listed as 9.7

Data provenance: patent EP4631959A2
